Target: Alkaline phosphatase, tissue-nonspecific isozyme (Homo sapiens, UniProt P05186)
Sequence (P05186 whole entry): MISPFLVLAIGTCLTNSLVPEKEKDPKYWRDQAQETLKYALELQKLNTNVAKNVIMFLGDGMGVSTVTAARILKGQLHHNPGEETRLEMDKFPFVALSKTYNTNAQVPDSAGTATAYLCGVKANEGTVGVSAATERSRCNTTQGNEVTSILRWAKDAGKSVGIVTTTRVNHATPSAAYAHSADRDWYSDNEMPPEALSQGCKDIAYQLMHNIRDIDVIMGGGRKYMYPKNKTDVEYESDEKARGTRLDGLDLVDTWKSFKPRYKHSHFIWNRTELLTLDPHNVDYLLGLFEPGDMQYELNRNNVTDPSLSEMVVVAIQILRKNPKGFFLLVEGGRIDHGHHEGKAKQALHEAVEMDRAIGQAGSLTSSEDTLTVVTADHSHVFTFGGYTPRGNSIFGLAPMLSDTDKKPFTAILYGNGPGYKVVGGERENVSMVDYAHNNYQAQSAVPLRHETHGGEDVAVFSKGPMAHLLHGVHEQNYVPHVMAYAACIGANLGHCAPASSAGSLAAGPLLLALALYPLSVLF
Test: human TNAP enzyme inhibitors, biochemical, luminescent (AID 518)
pIC50: −log10 of the molar value.
Readout Name: pIC50

// below: answered compounds
COc1ccc(-c2[nH]nc3oc(=O)cc(C)c23)cc1 | 5.87
Oc1c2c(c(O)n1-c1nnc(Cc3ccccc3)[nH]1)CC=CC2 | 6.48

P. Cc1ccc(-n2ncc3c2ncn2c(C)nnc32)cc1C
Q. COC(=O)c1cc(-c2ccc(Br)cc2)n[nH]1
Data request: Short answer wanted: higher pIC50, P or Q ? Write down the label attached to your selection.
Data returned: Q

P. CCCSc1nnc(NC(C)=O)[nH]1
Q. COCc1n[nH]c2c1C(c1cc(OC)c(O)c(OC)c1)C(C#N)C(=N)O2 (configuration not stated)
R. Cc1ccsc1C=c1sc2ncnn2c1=O
S. COc1cc(CSc2nnc[nH]2)c(OC)cc1CSc1nnc[nH]1
Data request: Thanks in advance: please rank these 4 entries by pIC50, highest to lowest. A ranking is expressed here by listing the labels in the requested order.
Data returned: P, S, Q, R

P. c1ccc(-c2[nH]nc3ccccc23)cc1
Q. COC(=O)c1cc(-c2c[nH]c3ccccc23)[nH]n1
Data request: Short answer wanted: higher pIC50, P or Q ? Write down the label attached to your selection.
Data returned: Q
(Q: 5.93, P: 5.43)
